These data points were gathered from paper PMC5216056.

Biological target: PPARα (h) (Homo sapiens, UniProt Q07869)
Construct: CEREP (contract assay)
Sequence (Q07869 whole entry): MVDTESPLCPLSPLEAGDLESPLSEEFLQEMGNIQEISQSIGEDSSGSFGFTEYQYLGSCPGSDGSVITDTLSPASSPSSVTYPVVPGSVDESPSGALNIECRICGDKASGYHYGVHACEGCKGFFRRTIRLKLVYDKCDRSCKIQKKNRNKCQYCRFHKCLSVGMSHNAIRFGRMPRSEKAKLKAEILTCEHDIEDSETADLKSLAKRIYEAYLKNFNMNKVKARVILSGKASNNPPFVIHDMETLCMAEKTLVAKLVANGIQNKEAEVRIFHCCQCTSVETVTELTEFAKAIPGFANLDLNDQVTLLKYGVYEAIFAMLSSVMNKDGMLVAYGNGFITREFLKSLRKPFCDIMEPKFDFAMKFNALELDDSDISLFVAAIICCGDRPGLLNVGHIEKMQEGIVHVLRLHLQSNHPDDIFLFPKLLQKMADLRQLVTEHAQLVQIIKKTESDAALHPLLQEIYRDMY
Assay: CEREP panel
Assay type: binding
Conditions: 10 µM

# compound, tested_on, % inhibition PPARα (h)
data = [
    ("Cc1c(C(=O)c2cccc3ccccc23)c2cccc3c2n1[C@H](CN1CCOCC1)CO3", "PPARα (h) (Homo sapiens, UniProt Q07869)", "-4%"),
    ("CCCCCCC(C)(C)c1cc(OC)c(C2=C[C@H]3CC[C@]2(CO)C3(C)C)c(OC)c1", "PPARα (h) (Homo sapiens, UniProt Q07869)", "-28%"),
    ("CN1CCCC[C@H]1Cn1cc(C(=O)c2cc([N+](=O)[O-])ccc2I)c2ccccc21 [(S)-AM1241]", "PPARα (h) (Homo sapiens, UniProt Q07869)", "-18%"),
    ("CCCC(C)(C)c1ccc2c(c1)OC(C)(C)[C@@H]1CC=C(C)C[C@@H]21", "PPARα (h) (Homo sapiens, UniProt Q07869)", "-25%"),
]

###

Each item that follows carries a reported pKi ± SEM hCB2R.
Target: hCB2R (Homo sapiens, UniProt P34972)
Sequence (P34972 whole entry): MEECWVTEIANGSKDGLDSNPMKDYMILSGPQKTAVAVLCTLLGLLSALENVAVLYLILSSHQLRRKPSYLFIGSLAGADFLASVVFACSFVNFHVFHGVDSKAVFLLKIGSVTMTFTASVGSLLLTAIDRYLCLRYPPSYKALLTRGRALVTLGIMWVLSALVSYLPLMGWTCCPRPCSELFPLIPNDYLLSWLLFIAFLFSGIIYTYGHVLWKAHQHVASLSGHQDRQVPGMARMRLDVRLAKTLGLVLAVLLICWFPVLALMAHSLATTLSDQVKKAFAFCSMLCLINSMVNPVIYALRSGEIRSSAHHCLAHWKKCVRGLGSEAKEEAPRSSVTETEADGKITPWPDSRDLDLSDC
Assay: biochemical
Format: binding
Conditions: CHO membranes; Leiden, HU210 and SR144528 from Roche

# compound, tested_on, pKi ± SEM hCB2R
rows = [
    ("Cc1ccc2c(c1)Cc1c(C(=O)NN3CCCCC3)nn(-c3ccc(Cl)cc3Cl)c1-2 [Gp-1a]", "hCB2R (Homo sapiens, UniProt P34972)", 7.66),
    ("CN1CCCC[C@H]1Cn1cc(C(=O)c2cc([N+](=O)[O-])ccc2I)c2ccccc21 [(S)-AM1241]", "hCB2R (Homo sapiens, UniProt P34972)", 7.02),
    ("CN1CCCCC1Cn1cc(C(=O)c2cc([N+](=O)[O-])ccc2I)c2ccccc21 (racemic) [(rac)-AM1241]", "hCB2R (Homo sapiens, UniProt P34972)", 8.39),
    ("CCCCCCC(C)(C)c1cc(OC)c(C2=C[C@H]3CC[C@]2(CO)C3(C)C)c(OC)c1 [HU910]", "hCB2R (Homo sapiens, UniProt P34972)", 7.22),
    ("CN1CCCC[C@@H]1Cn1cc(C(=O)c2cc([N+](=O)[O-])ccc2I)c2ccccc21 [(R)-AM1241]", "hCB2R (Homo sapiens, UniProt P34972)", 8.44),
]

###

Catalogue of β-AR-cAMP bias factor (BF) readings, one per entry.
Molecular target: UniProtKB P34972
Set-up: expressed in transfected cells; host or cells: Flp-In-293 (Invitrogen #R750-07), pcDNA5/FRT
Settings: hCB2R
measured_metric: β-AR-cAMP bias factor (BF)

# compound, result
records = [
    ("CCCCC/C=C\\C/C=C\\C/C=C\\C/C=C\\CCCC(=O)NCCO [Anandamide, N-arachidonoylethanolamine]", 62.52),
    ("CCCCCCC(C)(C)c1cc(OC)c(C2=C[C@H]3CC[C@]2(CO)C3(C)C)c(OC)c1", 36.90),
    ("CCCCCCC(C)(C)c1cc(OC)c([C@@H]2C=C(CO)[C@@H]3C[C@H]2C3(C)C)c(OC)c1", 27.16),
    ("CCCCC/C=C\\C/C=C\\C/C=C\\C/C=C\\CCCC(=O)OC(CO)CO", 13.03),
]

###

Target: alpha 1A (h) (Homo sapiens, UniProt P35348)
Construct: CEREP
Sequence (P35348 1-466): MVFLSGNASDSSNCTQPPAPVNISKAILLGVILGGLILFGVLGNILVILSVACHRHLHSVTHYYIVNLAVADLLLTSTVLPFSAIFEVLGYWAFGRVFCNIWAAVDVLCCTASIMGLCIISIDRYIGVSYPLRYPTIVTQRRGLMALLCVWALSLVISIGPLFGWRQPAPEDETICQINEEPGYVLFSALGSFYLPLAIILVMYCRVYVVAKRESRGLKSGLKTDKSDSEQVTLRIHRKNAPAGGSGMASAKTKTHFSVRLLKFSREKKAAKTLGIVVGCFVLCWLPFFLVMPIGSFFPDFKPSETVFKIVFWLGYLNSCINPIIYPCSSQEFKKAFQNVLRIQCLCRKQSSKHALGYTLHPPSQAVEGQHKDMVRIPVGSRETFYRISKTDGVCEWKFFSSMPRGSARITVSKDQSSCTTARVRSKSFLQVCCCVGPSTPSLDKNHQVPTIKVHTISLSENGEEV
Experiment: CEREP panel
Type: binding
Settings: 10 µM
Entry flag: MET if % inhibition alpha 1A (h) reaches 20%; NOT MET if it does not.

# compound, cat
data = [
    ("Cc1ccc2c(c1)Cc1c(C(=O)NN3CCCCC3)nn(-c3ccc(Cl)cc3Cl)c1-2", "NOT MET"),
    ("Cc1c(C(=O)c2cccc3ccccc23)c2cccc3c2n1[C@H](CN1CCOCC1)CO3", "NOT MET"),
    ("COc1ccc(C(=O)c2c(C)n(CCN3CCOCC3)c3cc(I)ccc23)cc1", "MET"),
    ("CN1CCCC[C@H]1Cn1cc(C(=O)c2cc([N+](=O)[O-])ccc2I)c2ccccc21 [(S)-AM1241]", "MET"),
    ("CCCn1c(C)c(C(=O)c2cccc3ccccc23)c2ccccc21", "NOT MET"),
    ("Cc1c(C(=O)NN2CCCCC2)nn(-c2ccc(Cl)cc2Cl)c1-c1ccc(I)cc1", "NOT MET"),
    ("CCCCCCC(C)(C)c1cc(OC)c(C2=C[C@H]3CC[C@]2(CO)C3(C)C)c(OC)c1", "NOT MET"),
    ("CCCC(C)(C)c1ccc2c(c1)OC(C)(C)[C@@H]1CC=C(C)C[C@@H]21", "NOT MET"),
]

###

Biological target: PPARgamma (h) (Homo sapiens, UniProt P37231)
Construct: CEREP (contract assay)
Sequence (P37231 1-505): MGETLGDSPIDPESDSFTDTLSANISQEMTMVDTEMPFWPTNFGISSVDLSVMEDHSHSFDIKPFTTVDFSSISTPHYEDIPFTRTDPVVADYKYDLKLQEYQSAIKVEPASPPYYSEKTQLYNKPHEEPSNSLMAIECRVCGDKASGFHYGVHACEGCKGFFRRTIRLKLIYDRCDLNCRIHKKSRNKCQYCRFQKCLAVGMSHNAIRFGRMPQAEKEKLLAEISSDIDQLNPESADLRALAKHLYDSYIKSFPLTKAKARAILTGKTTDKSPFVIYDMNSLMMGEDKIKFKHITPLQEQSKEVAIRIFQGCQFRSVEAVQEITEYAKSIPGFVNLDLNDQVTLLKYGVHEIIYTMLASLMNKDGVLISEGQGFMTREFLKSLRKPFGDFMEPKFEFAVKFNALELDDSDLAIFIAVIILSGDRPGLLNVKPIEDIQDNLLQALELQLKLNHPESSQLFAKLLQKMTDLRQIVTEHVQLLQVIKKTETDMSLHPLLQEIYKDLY
Test: CEREP panel
Assay type: binding
Details: 10 µM
Record satisfied whenever % inhibition PPARgamma (h) is at 20% or higher; record not satisfied when lower.

# compound, tested_on, cat
measured = [
    ("CCCCCCC(C)(C)c1cc(OC)c(C2=C[C@H]3CC[C@]2(CO)C3(C)C)c(OC)c1", "PPARgamma (h) (Homo sapiens, UniProt P37231)", "not satisfied"),
    ("Cc1c(C(=O)NN2CCCCC2)nn(-c2ccc(Cl)cc2Cl)c1-c1ccc(I)cc1", "PPARgamma (h) (Homo sapiens, UniProt P37231)", "satisfied"),
    ("CCCn1c(C)c(C(=O)c2cccc3ccccc23)c2ccccc21", "PPARgamma (h) (Homo sapiens, UniProt P37231)", "satisfied"),
    ("Cc1ccc2c(c1)Cc1c(C(=O)NN3CCCCC3)nn(-c3ccc(Cl)cc3Cl)c1-2", "PPARgamma (h) (Homo sapiens, UniProt P37231)", "satisfied"),
    ("CN1CCCC[C@H]1Cn1cc(C(=O)c2cc([N+](=O)[O-])ccc2I)c2ccccc21 [(S)-AM1241]", "PPARgamma (h) (Homo sapiens, UniProt P37231)", "satisfied"),
]

###

Conditions: 1 μM

# compound, CL microsomes mouse, µL/min/mg protein
rows = [
    ("CCCCCCC(C)(C)c1cc(OC)c(C2=C[C@H]3CC[C@]2(CO)C3(C)C)c(OC)c1", 464),
    ("CN1CCCC[C@@H]1Cn1cc(C(=O)c2cc([N+](=O)[O-])ccc2I)c2ccccc21 [(R)-AM1241]", 314),
    ("Cc1c(C(=O)c2cccc3ccccc23)c2cccc3c2n1[C@H](CN1CCOCC1)CO3", 745),
    ("CN1CCCCC1Cn1cc(C(=O)c2cc([N+](=O)[O-])ccc2I)c2ccccc21 (racemic) [(rac)-AM1241]", 254),
    ("Cc1ccc2c(c1)Cc1c(C(=O)NN3CCCCC3)nn(-c3ccc(Cl)cc3Cl)c1-2", 134),
    ("CCCn1c(C)c(C(=O)c2cccc3ccccc23)c2ccccc21", 989),
    ("CCCC(C)(C)c1ccc2c(c1)OC(C)(C)[C@@H]1CC=C(C)C[C@@H]21", 63),
    ("COc1ccc(C(=O)c2c(C)n(CCN3CCOCC3)c3cc(I)ccc23)cc1", 468),
    ("CN1CCCC[C@H]1Cn1cc(C(=O)c2cc([N+](=O)[O-])ccc2I)c2ccccc21 [(S)-AM1241]", 640),
]
